The measurements presented in this section are drawn from paper PMC10791897.

# tested_target: XaffOBP9 mutant L114A
# test_method_notes: Fluorescence binding assays of mutant L114A
# experimental_conditions: read-out: Kd with 1-NPN; mutant L114A
observation_type: pKd
Value format note: pKd is -log10 of concentration (mol/L); just state the number.

Entry under review: c1ccc(Nc2cccc3ccccc23)cc1 [Ligand 1-NPN, N-phentl-1-naphthylamine, reference compound] . Reported pKd? 4.83

----------
# System: XaffOBP9 mutant L114A
# test_method_notes: Fluorescence binding assays of mutant L114A
# Set-up: species or system Xyleborus affinis
# experimental_conditions: fluorescence binding assays; classes by Ki as in Figure 8 legend
observation_type: binding of ligand to L114A mutant protein

The following molecules have reported results that may help.
1) C=C1C2CCC3C2C(C)(C)CCCC13C (single isomer, unassigned; (+)) [(+)-Longifolene] :: lost its ability to bind
2) C=C1CCC2(C(C)C)CC12 (stereo not drawn) :: lost its ability to bind
3) CC(C)(O)c1ccccc1 :: lost its ability to bind
4) C=CC(=C)CCC=C(C)C :: lost its ability to bind
5) CC1=CC[C@H]2[C@H]3[C@@H]1[C@]2(C)CC[C@H]3C(C)C :: weakly bound

Okay, next one:
Notebook: pull reported binding of ligand to L114A mutant protein for XaffOBP9 mutant L114A, entry Cc1cccc(C(C)C)c1 weakly bound

----------
# tested_target: XaffOBP9
# test_method_notes: Fluorescence binding assays of XaffOBP9 (1-NPN titration and competitive binding)
# experimental_conditions: read-out: dissociation constant K 1-NPN; titration of 2 μM protein with 1-NPN, Scatchard plot
observation_type: Kd (µM)
Entry rule: numbers only, all in µM.

Observed Kd on XaffOBP9 for c1ccc(Nc2cccc3ccccc23)cc1 [Ligand 1-NPN, N-phentl-1-naphthylamine, reference compound] , please. 5.91

----------
# tested_target: XaffOBP9
# test_method_notes: Fluorescence binding assays of XaffOBP9 (1-NPN titration and competitive binding)
# experimental_conditions: competitor displacing 1-NPN; 2 μM protein, 50 mM Tris-HCl pH 7.4
# Procedure: The purified XaffOBP9 was dissolved at a final concentration of 2 μM in 50 mM Tris-HCl (pH 7.4). The binding ability of the fluorescent probe to XaffOBP9 was measured using the Infinite 200 PRO microplate plate reader (Tecan, Mannedorf, Switzerland). […] These compounds (>90% puity) were purchased from Yuanye Bio-Technology (Shanghai, China), Alading Chemical Industry (Shanghai, China) and Sigma-Aldrich (MO, United States). Binding data were collected as three independent measurements. […]
Measured pIC50 accompanies every entry in the list below.
pIC50 field: float, defined as -log10 of concentration (mol/L).

Consider the worked cases shown below.
1. CC1=CCC(=C(C)C)CC1 [Terpinolene] :: 4.88
2. CC1=CCC2C(C1)C2(C)C (centres unmarked) [Ligand 3-Carene, 3-Carene] :: 4.91
3. CC1=CC(O)C2CC1C2(C)C [(S)-cis-Verbenol] :: 4.79
4. C=C1CCC2(C(C)C)CC12 (centres unmarked) [Sabinene] :: 4.74
5. C=C1CCC2CC1C2(C)C (stereo not drawn) [(-)-β-pinene] :: 4.80
6. C=C1C2CCC3C2C(C)(C)CCCC13C (single isomer, unassigned; (+)) [(+)-Longifolene] :: 4.71
7. CCCCCCCCCCCCCC [Tetradecane] :: 4.80
8. CC(C)(O)c1ccccc1 [2-Phenyl-2-propanol] :: 4.85
9. C=CC(=C)CCC=C(C)C [Myrcene] :: 4.94
10. C=C1C2CCC(C2)C1(C)C (centres unmarked) [Camphene] :: 5.03

Form field: reported pIC50 of Cc1cccc(C(C)C)c1 [m-Cymene] 4.76

Consider the compound CC1=CC[C@H]2[C@H]3[C@@H]1[C@]2(C)CC[C@H]3C(C)C [α-copaene] and give its measured pIC50. 4.88

Fill blank: measured pIC50 of the compound C=C(C)[C@@H]1CC=C(C)CC1 [(S)-(-)-Limonene] is ____. 4.79

Param item = CC1=CCC2CC1C2(C)C (stereo not drawn) [α-pinene] ; retrieve measured pIC50. 5.00

----------
# tested_target: XaffOBP9
# test_method_notes: Fluorescence binding assays of XaffOBP9 (1-NPN titration and competitive binding)
# experimental_conditions: calculated from IC50: Ki = [IC50]/(1 + [1-NPN]/K1-NPN)
Lab note - cut at 10 µM for Ki: Satisfied if strictly below, Not satisfied if not.

Solved entries:
1) C=C1C2CCC(C2)C1(C)C (centres unmarked) :: Satisfied
2) C=C1CCC2CC1C2(C)C (stereo not drawn) [(-)-β-pinene] :: Not satisfied
3) CC1=CCC2C(C1)C2(C)C (centres unmarked) :: Not satisfied
4) CC1=CCC(=C(C)C)CC1 :: Not satisfied
5) C=C(C)[C@@H]1CC=C(C)CC1 [(S)-(-)-Limonene] :: Not satisfied

Ki strictly < 10 µM for this molecule? CC(C)(O)c1ccccc1 Not satisfied

Please let me know if CCCCCCCCCCCCCC shows Ki below 10 µM. Not satisfied

Does the reported Ki of Cc1cccc(C(C)C)c1 stay below 10 µM? Not satisfied

I'd appreciate it if you could check whether C=C1C2CCC3C2C(C)(C)CCCC13C (single isomer, unassigned; (+)) [(+)-Longifolene] has Ki smaller than 10 µM. Not satisfied

Dear reviewer, please state whether CC1=CCC2CC1C2(C)C (centres unmarked) has Ki strictly beneath 10 µM. Satisfied

Report whether reported Ki is lower than 10 µM (strictly) for C=C1CCC2(C(C)C)CC12 (centres unmarked) Not satisfied

Lab log: compare recorded Ki with 10 µM; is it strictly lower for CC1=CC[C@H]2[C@H]3[C@@H]1[C@]2(C)CC[C@H]3C(C)C ? Not satisfied

Strictly below 10 µM in Ki? CC1=CC(O)C2CC1C2(C)C [(S)-cis-Verbenol] Not satisfied

----------
# tested_target: XaffOBP9 mutant Y106A
# test_method_notes: Fluorescence binding assays of mutant Y106A
# experimental_conditions: read-out: Kd with 1-NPN; mutant Y106A
# Method: The purified XaffOBP9 was dissolved at a final concentration of 2 μM in 50 mM Tris-HCl (pH 7.4). The binding ability of the fluorescent probe to XaffOBP9 was measured using the Infinite 200 PRO microplate plate reader (Tecan, Mannedorf, Switzerland). […] Binding data were collected as three independent measurements. […] The data analysis and binding curve calculations were processed in Prism 8 (Graphpad Software, San Diego, CA, United States). […]
observation_type: Kd (µM)
Give just the numeric value; µM need not be written.

Could you share which Kd value was measured for c1ccc(Nc2cccc3ccccc23)cc1 [Ligand 1-NPN, N-phentl-1-naphthylamine, reference compound] ? 8.7

----------
# tested_target: XaffOBP9 mutant L71A
# test_method_notes: Fluorescence binding assays of mutant L71A
# experimental_conditions: read-out: Kd with 1-NPN
observation_type: Kd (µM)
Quick note: give the figure in µM, leave out the unit.

Tell me the measured Kd of c1ccc(Nc2cccc3ccccc23)cc1 [Ligand 1-NPN, N-phentl-1-naphthylamine, reference compound] , please. 5.97
